System: HCT-116 colon
Assay: NCI-60 one-dose screen, 48 h (100 = growth as untreated, 0 = no growth, -100 = all killed)
Conditions: 10 µM
About 83,000 compounds went through this panel and 20% of them were active in at least one assay; those are over-represented in the sample as a whole.
Assign growth to each entry below.
Numbers only, in %.

Before answering, review these 4 worked examples.
1) Cc1cccc(Cl)c1NC(=O)c1ccc2nc(NC(=O)NC3CCN(C)CC3)sc2c1 = 81.9
2) Clc1ccc(/C=C2\CCCC3=C2N=C2SC=NN2C3c2ccc(Cl)cc2)cc1 (stereo not drawn) = 5.7
3) COc1cc2nc(Nc3cccc(C(=O)O)c3)nc(N)c2cc1OC = -100
4) CCCC#CCN(CC)CC = 109

State the recorded growth for every item in the following list.
1. CCCCC/C=C/C(=O)CCc1ccc(O)c(OC)c1
2. CNc1ccc(CSc2ccc(C)cc2)cc1
3. COc1cc(Nc2ccnc(NCCNc3ccnc4cc(Cl)ccc34)n2)cc(OC)c1

1. 13.6
2. 93.6
3. -20.2

State the recorded growth for every item in the following list.
1. Cc1ccc(N=Nc2c(N)nc(N)[nH]c2=O)cc1C
2. CC[C@H](C)C(=O)O[C@H]1CCC=C2C=C[C@H](C)C(CCC3C[C@@H](O)CC(=O)O3)[C@H]21 (stereo partly drawn)
3. CCC(=O)N1C/C(=C/c2ccc(Cl)cc2)C(=O)/C(=C/c2ccc(Cl)cc2)C1
4. COc1cc(-c2cc(/C=C3\C(=O)Nc4cc(Cl)ccc43)[nH]n2)cc(OC)c1OC
5. O=c1[nH]c(-c2ccc(Cl)cc2)nc2sc3c(c12)CCCC3
6. CC(C)=CCc1ccc(O)c(=O)cc1C(C)C
7. N=C(N)c1ccc(-c2ccc(-c3cccs3)s2)s1
8. COc1ccccc1/C=C/C(=O)c1ccccc1

96.8
46.4
-85.4
14.2
60.9
17.3
-87
55.3

* * *

Test system: SNB-19 CNS
Assay: NCI-60 one-dose screen, 48 h
Conditions: 10 µM
The panel holds about 83,000 compounds, 20% with a hit somewhere; the sample as a whole holds those more often. The source made the active and inactive calls. The calls were made as follows: active = growth percent below 10; inactive = the rest.
The categories you may choose from are Yes (active), No (inactive)

1) CC(=O)O[C@]1(C)CC[C@H]2[C@H](CNCCc3ccc(Cl)cc3)C(=O)O[C@@H]2C2=C(C)C(=O)C[C@H]21 = No

Field: outcome | Entry: CCOC(=O)N1C=CC2C=CC1C1C=CC=CC2N1C(=O)OCC (stereo unspecified)
No

Field: outcome | Entry: "O=c1[nH]c2ccc(Cl)cc2c2ccccc12"
No

Field: outcome | Entry: "Fc1cc(C(F)(F)F)ccc1-c1cncnc1NC1CCCCCC1"
No

Field: outcome | Entry: "COc1cc(-c2nnc(-c3c(-c4ccc(F)cc4)nc4ccccn34)o2)cc(OC)c1OC"
No

Field: outcome | Entry: "O=C(Nc1ccc(CO)cc1)c1ccccc1Nc1ccnc(C(F)(F)F)c1"
No

Field: outcome | Entry: "Cc1ccc(Nc2cc(C)nc(NCCCNc3ccnc4cc(Cl)ccc34)n2)cc1"
Yes

Field: outcome | Entry: "COc1ccc(Oc2nc(NC3CCCC3)nc(Sc3ccc(OC)cc3)n2)cc1"
No

Field: outcome | Entry: O=C(O)C(SC(C(=O)O)c1ccccc1)c1ccccc1 (stereo unspecified)
No

Field: outcome | Entry: "COc1ccc(-c2nc3sc(C4CC4)nn3c2/C=C2/C(=O)Nc3ccc(OC)cc32)cc1"
No

Field: outcome | Entry: "N=C(N)c1ccc(-c2ccc(-c3ccco3)o2)cc1"
No
